measured-on: Microtubule-associated protein tau (Homo sapiens, UniProt P10636)
Sequence (P10636 whole entry): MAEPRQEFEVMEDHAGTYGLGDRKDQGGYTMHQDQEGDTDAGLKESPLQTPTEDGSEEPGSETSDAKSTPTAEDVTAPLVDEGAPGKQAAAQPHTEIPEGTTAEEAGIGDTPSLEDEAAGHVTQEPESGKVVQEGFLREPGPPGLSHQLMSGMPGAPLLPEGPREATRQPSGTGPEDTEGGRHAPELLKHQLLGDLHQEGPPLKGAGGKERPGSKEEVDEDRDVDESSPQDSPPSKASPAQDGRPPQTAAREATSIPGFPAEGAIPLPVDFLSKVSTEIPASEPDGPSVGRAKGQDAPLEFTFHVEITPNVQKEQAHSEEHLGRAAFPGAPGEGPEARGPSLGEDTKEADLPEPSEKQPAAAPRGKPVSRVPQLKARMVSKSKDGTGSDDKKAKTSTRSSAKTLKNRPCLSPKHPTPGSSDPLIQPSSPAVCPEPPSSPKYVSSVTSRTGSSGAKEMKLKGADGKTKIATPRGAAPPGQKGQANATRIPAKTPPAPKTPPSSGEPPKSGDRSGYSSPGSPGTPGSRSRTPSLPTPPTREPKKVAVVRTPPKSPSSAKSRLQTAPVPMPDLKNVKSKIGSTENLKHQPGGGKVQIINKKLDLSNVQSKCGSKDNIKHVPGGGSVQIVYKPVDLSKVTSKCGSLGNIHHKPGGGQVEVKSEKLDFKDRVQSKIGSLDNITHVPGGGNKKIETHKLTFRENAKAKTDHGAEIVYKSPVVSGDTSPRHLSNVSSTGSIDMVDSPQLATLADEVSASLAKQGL
assay-name: Binding affinity to heparin induced human Tau 441 at 50 pM to 500 nM after 30 mins
experimental-readout: pKd
To interpret pKd, take it as minus log10 of a concentration measured in moles per litre.

Query the reported pKd for Microtubule-associated protein tau (Homo sapiens, UniProt P10636); item: Cc1c(OCC(F)(F)F)ccnc1C[S+]([O-])c1nc2ccccc2n1[11CH3] (stereo unspecified)
9.15

----------
measured-on: Microtubule-associated protein tau (Homo sapiens, UniProt P10636)
assay-name: Binding affinity to heparin induced human Tau 441 at 50 pM to 500 nM after 30 mins
experimental-readout: Ki (nM)
Write it as a number; the unit nM goes unstated.

Reported Ki for Cc1c(OCC(F)(F)F)ccnc1C[S+]([O-])c1nc2ccccc2[nH]1 (stereo unspecified) : what is it?
2.5
